Molecular target: HDAC3 (Homo sapiens, UniProt O15379)
Construct: purchased Reaction Biology Corporation (assay run by the CRO)
Sequence (O15379 whole entry): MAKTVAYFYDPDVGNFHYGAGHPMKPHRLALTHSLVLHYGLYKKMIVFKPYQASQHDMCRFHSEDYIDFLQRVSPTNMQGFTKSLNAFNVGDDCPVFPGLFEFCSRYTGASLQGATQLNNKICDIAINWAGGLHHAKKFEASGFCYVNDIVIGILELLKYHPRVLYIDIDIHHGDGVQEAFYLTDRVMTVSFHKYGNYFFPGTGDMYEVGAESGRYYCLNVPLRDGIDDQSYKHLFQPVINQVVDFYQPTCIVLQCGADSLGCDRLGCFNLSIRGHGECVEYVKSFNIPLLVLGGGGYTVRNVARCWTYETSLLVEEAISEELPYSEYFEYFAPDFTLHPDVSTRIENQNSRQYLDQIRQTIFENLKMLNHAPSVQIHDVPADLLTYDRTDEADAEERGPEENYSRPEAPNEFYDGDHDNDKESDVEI
Sequence (Q9Y618 395-489 partner limits assumed): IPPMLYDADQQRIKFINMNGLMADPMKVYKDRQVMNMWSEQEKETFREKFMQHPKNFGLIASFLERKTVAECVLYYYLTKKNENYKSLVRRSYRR
Assay: HDAC3 inhibition, full IC50 measurement (Reaction Biology; fluorogenic p53 peptide RHKK(Ac)AMC)
Format: biochemical
Conditions: Conc. 1.37E-08 M, t2
Peptide text beside a SMILES is read from it.
Assay Readout: HDAC3 activity raw data (signal)

- CC(C)[C@@H]1NC(=O)[C@H](CCCNC(=N)N)NC(=O)[C@@H](CC(=O)O)NC(=O)[C@H](CO)NC(=O)[C@@H](CO)NC(=O)[C@@H](CCC(=O)O)NC(=O)[C@H](Cc2ccc(O)cc2)NC(=O)[C@H](CCCCCS)NC1=O [des4.2.0, SHA-Tyr-dGlu-dSer-Ser-dAsp-Arg-Val] (HELM PEPTIDE1{R.V.[O=C([C@H](CCCCCS)N[*:1])[*:2]].Y.[dE].[dS].S.[dD]}$PEPTIDE1,PEPTIDE1,1:R1-8:R2$$$V2.0): 1111273

====

Target: HDAC6 (Homo sapiens)
Construct: purchased Reaction Biology Corporation (assay run by the CRO)
Experiment: HDAC6 inhibition, full IC50 measurement (Reaction Biology; fluorogenic p53 peptide RHKK(Ac)AMC)
Assay type: biochemical
Details: Conc. 4.12E-08 M, t1
Peptide text beside a SMILES is read from it.
Assay Readout: HDAC6 activity raw data (signal)

• CCCC[C@H]1NC(=O)[C@H](CC(=O)O)NC(=O)[C@@H](CO)NC(=O)[C@@H](C)NC(=O)[C@H](CCCCN)NC(=O)[C@@H](CCCCN)NC(=O)[C@H](Cc2ccccc2)NC(=O)[C@H](CCCCCS)NC1=O [des4.3.1.2, SHA-Phe-dLys-Lys-dAla-dSer-Asp-dNle] (HELM PEPTIDE1{D.[CCCC[C@@H](N[*:1])C(=O)[*:2]].[O=C([C@H](CCCCCS)N[*:1])[*:2]].F.[dK].K.[dA].[dS]}$PEPTIDE1,PEPTIDE1,1:R1-8:R2$$$V2.0) = 1630143

====

Molecular target: HDAC6 (Homo sapiens, UniProt Q9UBN7)
Construct: purchased Reaction Biology Corporation (assay run by the CRO)
Sequence (Q9UBN7 whole entry): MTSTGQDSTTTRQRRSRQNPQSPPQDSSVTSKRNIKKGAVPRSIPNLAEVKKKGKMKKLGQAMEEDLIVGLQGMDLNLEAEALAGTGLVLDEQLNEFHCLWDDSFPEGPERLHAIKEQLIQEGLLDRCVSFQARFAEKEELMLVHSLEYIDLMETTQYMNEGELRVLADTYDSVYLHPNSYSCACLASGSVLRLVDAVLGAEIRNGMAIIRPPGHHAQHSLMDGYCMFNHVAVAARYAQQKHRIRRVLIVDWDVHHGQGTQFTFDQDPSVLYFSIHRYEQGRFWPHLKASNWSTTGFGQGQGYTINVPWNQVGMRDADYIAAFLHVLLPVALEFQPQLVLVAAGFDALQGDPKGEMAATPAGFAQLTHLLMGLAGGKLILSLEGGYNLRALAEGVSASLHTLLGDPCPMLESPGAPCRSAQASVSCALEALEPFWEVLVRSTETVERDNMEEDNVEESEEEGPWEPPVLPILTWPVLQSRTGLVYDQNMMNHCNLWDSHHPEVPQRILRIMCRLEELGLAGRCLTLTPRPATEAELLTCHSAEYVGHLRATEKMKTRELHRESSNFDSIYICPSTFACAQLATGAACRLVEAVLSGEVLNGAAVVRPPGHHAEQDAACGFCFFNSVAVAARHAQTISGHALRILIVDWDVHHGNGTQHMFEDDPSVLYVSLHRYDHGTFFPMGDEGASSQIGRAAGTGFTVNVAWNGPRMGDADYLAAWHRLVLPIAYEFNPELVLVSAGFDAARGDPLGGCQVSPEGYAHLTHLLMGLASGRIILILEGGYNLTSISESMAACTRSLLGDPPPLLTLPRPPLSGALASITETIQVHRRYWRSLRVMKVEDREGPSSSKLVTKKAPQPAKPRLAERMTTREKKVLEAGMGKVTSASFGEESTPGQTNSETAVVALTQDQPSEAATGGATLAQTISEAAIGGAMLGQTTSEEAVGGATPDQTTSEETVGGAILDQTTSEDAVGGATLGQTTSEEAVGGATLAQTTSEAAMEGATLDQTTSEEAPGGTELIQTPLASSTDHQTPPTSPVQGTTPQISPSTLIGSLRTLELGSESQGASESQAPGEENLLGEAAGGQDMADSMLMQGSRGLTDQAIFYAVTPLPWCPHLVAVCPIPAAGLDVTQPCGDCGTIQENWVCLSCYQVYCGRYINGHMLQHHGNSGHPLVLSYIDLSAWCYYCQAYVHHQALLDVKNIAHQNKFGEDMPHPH
Assay: HDAC6 inhibition, full IC50 measurement (Reaction Biology; fluorogenic p53 peptide RHKK(Ac)AMC)
Format: biochemical
Conditions: Conc. 3.33E-06 M, t2
Peptide text beside a SMILES is read from it.
Form field: HDAC6 activity raw data (signal) (one value per entry).
Assay Readout: HDAC6 activity raw data (signal)

- N=C(N)NCCC[C@H]1NC(=O)[C@@H]2CCCN2C(=O)[C@H](CO)NC(=O)[C@@H](Cc2c[nH]cn2)NC(=O)[C@H](CCCCCS)NC(=O)[C@H](CCCCN)NC(=O)[C@H](Cc2ccc(O)cc2)NC(=O)[C@H]2CCCN2C(=O)[C@@H](CCC(N)=O)NC1=O [des3.1.0, SHA-dHis-Ser-Pro-dArg-dGln-dPro-Tyr-Lys] (HELM PEPTIDE1{K.[O=C([C@H](CCCCCS)N[*:1])[*:2]].[dH].S.P.[dR].[dQ].[dP].Y}$PEPTIDE1,PEPTIDE1,1:R1-9:R2$$$V2.0): 38190
- CCCC[C@H]1NC(=O)[C@H](CC(=O)O)NC(=O)[C@@H](CO)NC(=O)[C@@H](C)NC(=O)[C@H](CCCCN)NC(=O)[C@@H](CCCCN)NC(=O)[C@H](Cc2ccccc2)NC(=O)[C@H](CCCCCS)NC1=O [des4.3.1.2, SHA-Phe-dLys-Lys-dAla-dSer-Asp-dNle] (HELM PEPTIDE1{D.[CCCC[C@@H](N[*:1])C(=O)[*:2]].[O=C([C@H](CCCCCS)N[*:1])[*:2]].F.[dK].K.[dA].[dS]}$PEPTIDE1,PEPTIDE1,1:R1-8:R2$$$V2.0): 662211
- CCCC[C@H]1NC(=O)[C@H](Cc2ccccc2)NC(=O)[C@H](CCCCCS)NC(=O)[C@@H](CCCNC(=N)N)NC(=O)[C@H](CC(=O)O)NC(=O)[C@@H](CO)NC(=O)[C@@H](C)NC(=O)[C@H](CCCCN)NC1=O [des4.3.1, SHA-Phe-dNle-Lys-dAla-dSer-Asp-dArg] (HELM PEPTIDE1{D.[dR].[O=C([C@H](CCCCCS)N[*:1])[*:2]].F.[CCCC[C@@H](N[*:1])C(=O)[*:2]].K.[dA].[dS]}$PEPTIDE1,PEPTIDE1,1:R1-8:R2$$$V2.0): 6920
